Every entry's value here was drawn from ChEMBL document CHEMBL1140770.

- System: HepG2
- PROCEDURE_TEXT: Cytostatic activity against human HepG2 cells by SRB assay
- Type: functional
So I've got a bunch of compounds here, and I need their GI50 values.
Supply the numeric figure in µM, leaving out any unit text.

What does the record list as GI50 for `C[C@H]1CC[C@@]2(OC1)O[C@H]1C=C3[C@@H]4CC[C@H]5Cc6nc7c(nc6C[C@]5(C)[C@H]4CC(=O)[C@]3(C)[C@H]1[C@@H]2C)C[C@@H]1CC[C@H]2C3=C[C@@H]4O[C@]5(CC[C@H](C)CO5)[C@@H](C)[C@@H]4[C@@]3(C)C(=O)C[C@@H]2[C@@]1(C)C7` ?
4.6

Queued: `C[C@H]1CC[C@@]2(OC1)O[C@H]1C=C3[C@@H]4CC[C@H]5Cc6nc7c(nc6C[C@]5(C)[C@H]4C[C@@H](O)[C@]3(C)[C@H]1[C@@H]2C)C[C@@H]1CC[C@H]2C3=C[C@@H]4O[C@]5(CC[C@H](C)CO5)[C@@H](C)[C@@H]4[C@@]3(C)[C@H](O)C[C@@H]2[C@@]1(C)C7`
0.65

Queued: C[C@H]1CC[C@@]2(OC1)O[C@H]1C=C3[C@@H]4CC[C@H]5Cc6nc7c(nc6C[C@]5(C)[C@H]4C[C@@H](O)[C@]3(C)[C@H]1[C@@H]2C)C[C@@H]1CC[C@H]2C3=C[C@@H]4O[C@]5(CC[C@H](C)CO5)[C@@H](C)[C@@H]4[C@@]3(C)C(CO)C[C@@H]2[C@@]1(C)C7 (stereo partly specified)
6.9

Queued: `C[C@H](CO)CC[C@H]1O[C@H]2C=C3[C@@H]4CC[C@H]5Cc6nc7c(nc6C[C@]5(C)[C@H]4CC4(OCCO4)[C@]3(C)[C@H]2[C@@H]1C)C[C@@H]1CC[C@H]2C3=C[C@@H]4O[C@]5(CC[C@H](C)CO5)[C@@H](C)[C@@H]4[C@@]3(C)[C@H](O)C[C@@H]2[C@@]1(C)C7`
10

* * *

- Tested on: MCF7
- PROCEDURE_TEXT: Cytostatic activity against human MCF7 cells by SRB assay
- Format: functional
OUTCOME_MEASURE: GI50 (nM)
Supply the numeric figure in nM, leaving out any unit text.

What does the record list as GI50 for C[C@H]1CC[C@@]2(OC1)O[C@H]1C=C3[C@@H]4CC[C@H]5Cc6nc7c(nc6C[C@]5(C)[C@H]4C[C@@H](O)[C@]3(C)[C@H]1[C@@H]2C)C[C@@H]1CC[C@H]2C3=C[C@@H]4O[C@]5(CC[C@H](C)CO5)[C@@H](C)[C@@H]4[C@@]3(C)C(CO)C[C@@H]2[C@@]1(C)C7 (some centres not stated) ?
100

* * *

- System: HepG2
- PROCEDURE_TEXT: Cytostatic activity against human HepG2 cells by SRB assay
- Assay type: functional
So I've got a bunch of compounds here, and I need their GI50 values.
Supply the numeric figure in nM, leaving out any unit text.

What does the record list as GI50 for `C[C@H](CO)CC[C@H]1O[C@H]2C=C3[C@@H]4CC[C@H]5Cc6nc7c(nc6C[C@]5(C)[C@H]4C[C@@H](O)[C@]3(C)[C@H]2[C@@H]1C)C[C@@H]1CC[C@H]2C3=C[C@@H]4O[C@H](CC[C@H](C)CO)[C@@H](C)[C@@H]4[C@@]3(C)C3(C[C@@H]2[C@@]1(C)C7)OCCO3` ?
1000

Queued: `C=C1C[C@H]2[C@@H](CC[C@H]3Cc4nc5c(nc4C[C@@]32C)C[C@@H]2CC[C@H]3C4=C[C@@H]6O[C@H](CC[C@H](C)CO)[C@@H](C)[C@@H]6[C@@]4(C)[C@H](O)C[C@@H]3[C@@]2(C)C5)C2=C[C@@H]3O[C@H](CC[C@H](C)CO)[C@@H](C)[C@@H]3[C@@]12C`
1000

Queued: `C[C@H]1CC[C@@]2(OC1)O[C@H]1C=C3[C@@H]4CC[C@H]5Cc6nc7c(nc6C[C@]5(C)[C@H]4C[C@@H](O)[C@]3(C)[C@H]1[C@@H]2C)C[C@@H]1CC[C@H]2C3=C[C@@H]4O[C@]5(CC[C@H](C)CO5)[C@@H](C)[C@@H]4[C@@]3(C)C3(C[C@@H]2[C@@]1(C)C7)OCCO3`
70
